- assay protocol: AUC (0 to t) in human at 30 mg, po administered as single dose
- Assay type: ADME, organism-based
- conditions: in vivo
parameter: AUC(0-t) (µM·h)
Answers are plain numbers, in µM·h.

CC(=O)Nc1cc(-c2c(-c3ccc(F)cc3)nc([S+](C)[O-])n2C)ccn1 (configuration not stated) | 2.65

With those in mind, consider the next molecule.
Fill in: AUC(0-t) of Cn1c([S+](C)[O-])nc(-c2ccc(F)cc2)c1-c1ccnc(N)c1 (configuration not stated) is ___
7.37

* * *

- assay protocol: Half life in Beagle dog at 40 mg/kg, po by LC-MS/MS analysis
- Assay type: ADME, organism-based, Canis lupus familiaris
- conditions: in vivo
parameter: half-life
Report the figure along with its unit, number first.

Item under review: CC(=O)Nc1cc(-c2c(-c3ccc(F)cc3)nc([S+](C)[O-])n2C)ccn1 (stereo unspecified) . Reported half-life?
7.8 h

Taken from ChEMBL document CHEMBL4028848.
